- Test system: Vibrio harveyi
- Test details: Bactericidal activity (MTT), Vibrio harveyi
- Format: cell-based
- Particulars: Vibrio harveyi; 1 µM; 5 h at 25 °C; read-out: Bactericidal activity (%)
Readout: inhibition at 1 µM (%)

CCCCCCc1ccc(O)cc1O [4-Hexylresorcinol, reference compound]; 34.7
C=CCSCC=C [Diallyl sulphide]; -36.4
C[C@@H]1CC[C@H]2C(C)(C)[C@H]3C[C@@]12CC[C@@]3(C)O; -23.8
COc1cc(/C=C/C(=O)CC(=O)/C=C/c2ccc(O)c(OC)c2)ccc1O; 7.6
CC12CCC(CC1)C(C)(C)O2; -1.9
O=c1ccc2ccccc2o1; -21.2

###

- Tested on: Vibrio anguillarum
- Test details: Bactericidal activity (MTT), Vibrio anguillarum
- Type: cell-based
- Particulars: 10 µM; 5 h at 25 °C; read-out: Bactericidal activity (%)
Listing: inhibition of selected compounds
Readout: inhibition (%)

CC(C)=C[C@@H]1[C@@H](C(=O)O)C1(C)C (relative stereo) [(+)-trans-Chrysanthemic acid]; 32
C=CCSSCC=C [Garlicin 80%]; -52.1
Oc1c(Cl)cc(Cl)cc1Sc1cc(Cl)cc(Cl)c1O [Bithionate sodium, reference compound]; 96.4

###

- System: Vibrio harveyi
- Test details: Bactericidal activity (MTT), Vibrio harveyi
- Assay type: cell-based
- Particulars: 0.1 µM
Readout: inhibition (%)

CCN(CC)C(=O)c1cccc(C)c1 [N,N-diethyl-M-toluamide, reference compound]; -0.9

###

- System: Vibrio anguillarum
- Test details: Bactericidal activity (MTT), Vibrio anguillarum
- Format: cell-based
- Particulars: 0.1 µM
Readout: inhibition (%)

CCN(CC)C(=O)c1cccc(C)c1 [N,N-diethyl-M-toluamide, reference compound]; -61.9

###

Listing: inhibition of selected compounds
- Tested on: Vibrio anguillarum
- Test details: Bactericidal activity (MTT), Vibrio anguillarum
- Assay type: cell-based
- Particulars: 0.1 µM; 5 h at 25 °C; read-out: Bactericidal activity (%)
Readout: inhibition

CC(C)=C[C@@H]1[C@@H](C(=O)O)C1(C)C (relative stereo) [(+)-trans-Chrysanthemic acid]; -1.4%
Oc1c(Cl)cc(Cl)cc1Sc1cc(Cl)cc(Cl)c1O [Bithionate sodium, reference compound]; 4.9%
C=CCSSCC=C [Garlicin 80%]; -110%

###

Listing: inhibition of selected compounds
- System: Vibrio harveyi
- Test details: Bactericidal activity (MTT), Vibrio harveyi
- Type: cell-based
- Particulars: 10 µM; 5 h at 25 °C; read-out: Bactericidal activity (%)
Readout: inhibition (%)

CC(C)=C[C@@H]1[C@@H](C(=O)O)C1(C)C (relative stereo) [(+)-trans-Chrysanthemic acid]; 13.2
C=CCSSCC=C; 42
Oc1c(Cl)cc(Cl)cc1Sc1cc(Cl)cc(Cl)c1O [Bithionate sodium, reference compound]; 40

###

- Test system: Vibrio harveyi
- Test details: Bactericidal activity (MTT), Vibrio harveyi
- Type: cell-based
- Particulars: 10 µM
Readout: inhibition (%)

CCN(CC)C(=O)c1cccc(C)c1 [N,N-diethyl-M-toluamide, reference compound]; 13.7

###

- Test system: Vibrio harveyi
- Test details: Bactericidal activity (MTT), Vibrio harveyi
- Format: cell-based
- Particulars: 0.1 µM; 5 h at 25 °C; read-out: Bactericidal activity (%)
Readout: inhibition (%)

Oc1c(Cl)cc(Cl)cc1Sc1cc(Cl)cc(Cl)c1O [Bithionate sodium, reference compound]; -8.8
C=CCSSCC=C; 20.9
CC(C)=C[C@@H]1[C@@H](C(=O)O)C1(C)C (relative stereo) [(+)-trans-Chrysanthemic acid]; -47.7

###

- Tested on: Vibrio anguillarum
- Test details: Bactericidal activity (MTT), Vibrio anguillarum
- Format: cell-based
- Particulars: 10 µM
Readout: inhibition (%)

CCN(CC)C(=O)c1cccc(C)c1 [N,N-diethyl-M-toluamide, reference compound]; 9.1

###

- System: Vibrio anguillarum
- Test details: Bactericidal activity (MTT), Vibrio anguillarum
- Format: cell-based
- Particulars: Vibrio anguillarum; 0.1 µM; 5 h at 25 °C; read-out: Bactericidal activity (%)
Readout: inhibition at 0.1 µM (%)

CCCCCCc1ccc(O)cc1O [4-Hexylresorcinol, reference compound]; -121
O=c1ccc2ccccc2o1; 1.5
C=CCSCC=C [Diallyl sulphide]; -11.3
COc1cc(/C=C/C(=O)CC(=O)/C=C/c2ccc(O)c(OC)c2)ccc1O; 9.5
